Target: BACE1 (Homo sapiens)
Assay: In Vitro BACE Cell-based Assay (HEK cell assay): Aβ40 in conditioned medium of cells stably expressing Amyloid Precursor Protein, sandwich ELISA
Conditions: Table IV, class symbols; read-out: HEK cell assay
pIC50: −log10 of the molar value.
I'd appreciate it if you could supply pIC50 values for the items below.

Write down the reported pIC50 of "Cc1ccc(-c2cnc3c(c2)[C@]2(COC(N)=N2)c2cc(-c4cncnc4)ccc2O3)cc1" , test system: BACE1 (Homo sapiens).
> 7.00

# returns recorded pIC50 (system: BACE1 (Homo sapiens)) for "Cc1cccc(-c2ccc3c(c2)[C@]2(COC(N)=N2)c2cccnc2O3)c1"
5.30 to 6.00

# returns recorded pIC50 (system: BACE1 (Homo sapiens)) for "NC1=N[C@@]2(CO1)c1ccccc1Oc1ccc(-c3cc(F)cnc3Cl)cc12"
6.00 to 7.00

Kindly state the measured pIC50 obtained for "COc1ccc2c(c1)[C@]1(COC(N)=N1)c1cc(OC)cnc1O2" with BACE1 (Homo sapiens).
5.30 to 6.00

Notebook: pull reported pIC50 for BACE1 (Homo sapiens), entry "CC(C)(C)C#Cc1ccc2c(c1)[C@]1(COC(N)=N1)c1cc(Cl)ncc1O2"
< 5.30

Item: "CC(C)(C)OC(=O)CCc1ccc2c(c1)[C@]1(COC(N)=N1)c1cc(-c3cncnc3)ccc1O2" Test system: BACE1 (Homo sapiens) Read-out: pIC50 Value: ?
5.30 to 6.00

Give BACE1 (Homo sapiens) pIC50 for "CC(C)(C)COc1ccc2c(c1)[C@@]1(COC(N)=N1)c1cc(-c3ccccc3)cnc1O2"
> 7.00

Can you look up pIC50 on BACE1 (Homo sapiens) for "NC1=N[C@@]2(CO1)c1cc(-c3cccnc3)ccc1Oc1ccc(-c3csc(N4CCCC4)n3)cc12" ?
5.30 to 6.00

What is its pIC50 for BACE1 (Homo sapiens)? Entry: "COC(C)(C)COc1cc2c(cc1F)Oc1ccc(-c3cccnc3)cc1[C@@]21COC(N)=N1"
> 7.00

Query the reported pIC50 for BACE1 (Homo sapiens); item: "NC1=N[C@]2(CO1)c1cc(-c3cncnc3)ccc1Oc1c(F)cc(C3=CCOCC3)cc12"
6.00 to 7.00

Find pIC50 (BACE1 (Homo sapiens)) for the entry "NC1=N[C@@]2(CO1)c1cc(C(=O)N3CCCC3)ccc1Oc1ccc(-c3cccnc3)cc12"
6.00 to 7.00

Request body: readout pIC50, system BACE1 (Homo sapiens), query "COC(C)(C)COc1ccc2c(c1)[C@@]1(COC(N)=N1)c1cc(-c3ccccc3)cnc1O2" . Return the value.
> 7.00

Lab note: need pIC50 with BACE1 (Homo sapiens) for entry "NC1=N[C@]2(CO1)c1cc(C3=CCNCC3)ccc1Oc1ccc(-c3cccnc3)cc12" , please look it up.
> 7.00

Find the measured pIC50: item "CC(C)(C)C#Cc1ccc2c(c1)[C@]1(COC(N)=N1)c1cc(C3=CCOCC3)ncc1O2" , target or system BACE1 (Homo sapiens).
5.30 to 6.00

What value of pIC50 on BACE1 (Homo sapiens) does "COC1CN(c2ccc3c(c2)[C@]2(COC(N)=N2)c2cc(-c4cccnc4)ccc2O3)C1" have?
> 7.00

Field: pIC50 (BACE1 (Homo sapiens)). Entry: "CCCOc1cc2c(cc1F)Oc1ccc(-c3ccc(F)nc3)cc1[C@@]21COC(N)=N1"
6.00 to 7.00

pIC50 of "NC1=N[C@@]2(CO1)c1cc(-c3cccnc3)ccc1Oc1c(F)cccc12" on BACE1 (Homo sapiens)?
6.00 to 7.00

State its pIC50 on BACE1 (Homo sapiens): "NC1=N[C@@]2(CO1)c1cc(-c3cccnc3)ccc1Oc1ccc(-c3cnoc3)cc12"
> 7.00

State its pIC50 on BACE1 (Homo sapiens): "CC(C)(C)c1nc(-c2ccc3c(c2)[C@]2(COC(N)=N2)c2cc(-c4cccnc4)ccc2O3)cs1"
6.00 to 7.00

Param readout= pIC50; system= BACE1 (Homo sapiens); entry= "COc1ccc2c(c1)[C@]1(COC(N)=N1)c1cc(C#CC(C)(C)C)cnc1O2" ; returns value.
6.00 to 7.00

Form entry - test system: BACE1 (Homo sapiens); read-out: pIC50; molecule: "CC(C)(C)COc1ccc2c(c1)[C@]1(COC(N)=N1)c1cc(C(=O)NC3CC3)ccc1O2"
> 7.00

Find the measured pIC50: item "COC(C)(C)C#Cc1cnc2c(c1)[C@]1(COC(N)=N1)c1cc(-c3cncnc3)ccc1O2" , target or system BACE1 (Homo sapiens).
> 7.00

// fetch BACE1 (Homo sapiens) pIC50 for "CC(C)(C)COc1ccc2c(c1)[C@]1(COC(N)=N1)c1cc(C3CCCCC3)ccc1O2"
6.00 to 7.00

What reported pIC50 corresponds to "COC(C)(C)C#Cc1cc(F)c2c(c1)[C@]1(COC(N)=N1)c1cc(-c3ccc(F)nc3)ccc1O2" on BACE1 (Homo sapiens)?
> 7.00

I'm curious: which pIC50 was measured for "CC(C)(C)C#Cc1ccc2c(c1)[C@]1(COC(N)=N1)c1cc(-c3cccnc3)ncc1O2" tested on BACE1 (Homo sapiens)?
6.00 to 7.00

Quick check: pIC50 on BACE1 (Homo sapiens), item "COc1ccc2c(c1)[C@]1(COC(N)=N1)c1cc(NC(=O)c3ccccc3)ccc1O2" ?
5.30 to 6.00

Requested read-out pIC50, target or system BACE1 (Homo sapiens), entry "NC1=N[C@@]2(CO1)c1cc(-c3cccnc3)ccc1Oc1cnc(C3=CCOCC3)cc12"
> 7.00

* * *

Molecular target: BACE1 (Homo sapiens)
Test: In Vitro BACE Cell-based Assay (HEK cell assay): Aβ40 in conditioned medium of cells stably expressing Amyloid Precursor Protein, sandwich ELISA
Conditions: HEK cells; read-out: HEK cell assay
pIC50: −log10 of the molar value.
readout_label: pIC50

Given "CC(C)(C)CCc1cnc2c(c1)[C@]1(COC(N)=N1)c1cc(-c3cncnc3)ccc1O2" , state its recorded pIC50.
> 7.00

Look up pIC50 for this compound: "Cc1ccc(-n2ccc3c(c2=O)[C@@]2(COC(N)=N2)c2cc(-c4cccnc4)ccc2O3)cc1"
5.30 to 6.00

Query: pIC50; subject: "Cn1cc(-c2cc(F)c3c(c2)[C@]2(COC(N)=N2)c2cc(-c4cncnc4)ccc2O3)cn1"
> 7.00

So what's the measured pIC50 for this one? "C[C@@H]1CN(c2cc(F)c3c(c2)[C@]2(COC(N)=N2)c2cc(-c4cccnc4)ccc2O3)C[C@H](C)O1"
> 7.00

What does the data say about its pIC50? Entry: "NC1=N[C@@]2(CO1)c1cc(-c3cccnc3)ccc1Oc1ccc(N3CCOC4(CC4)C3)cc12"
> 7.00

Look up pIC50: "CC(C)(C)CNc1cc2c(cn1)Oc1ccc(-c3cccnc3)cc1[C@@]21COC(N)=N1"
> 7.00

Please report the recorded pIC50 for "NC1=N[C@@]2(CO1)c1cc(-c3cncnc3)ccc1Oc1ccc(N3CCOC4(CCCC4)C3)cc12" .
6.00 to 7.00

What value of measured pIC50 is listed for "NC1=N[C@@]2(CO1)c1cc(-c3cccnc3)ccc1Oc1cnc(N3CCCCC3)cc12" ?
> 7.00

Which value of pIC50 has been reported for "CC1(C)CN(c2cc(F)c3c(c2)[C@@]2(COC(N)=N2)c2cc(-c4cncnc4)ccc2O3)CCO1" in the records?
5.30 to 6.00

* * *

Kindly supply the reported IC50 values for the records listed here.
Target: BACE1 (Homo sapiens, UniProt P56817)
Sequence (P56817 46-501, species assumed): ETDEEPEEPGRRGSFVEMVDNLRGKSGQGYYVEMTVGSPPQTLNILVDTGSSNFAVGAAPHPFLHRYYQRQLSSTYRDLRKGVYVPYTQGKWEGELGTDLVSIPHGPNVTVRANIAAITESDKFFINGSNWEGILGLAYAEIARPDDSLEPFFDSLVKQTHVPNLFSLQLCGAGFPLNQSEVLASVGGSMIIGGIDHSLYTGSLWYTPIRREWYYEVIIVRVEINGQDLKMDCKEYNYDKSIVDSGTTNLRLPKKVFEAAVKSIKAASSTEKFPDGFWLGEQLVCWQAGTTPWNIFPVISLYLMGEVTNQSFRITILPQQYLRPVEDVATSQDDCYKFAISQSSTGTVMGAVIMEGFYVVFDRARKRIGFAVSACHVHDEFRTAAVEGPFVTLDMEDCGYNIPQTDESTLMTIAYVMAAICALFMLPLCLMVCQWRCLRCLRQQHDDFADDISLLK
Assay: In Vitro BACE Cell-based Assay (HEK cell assay): Aβ40 in conditioned medium of cells stably expressing Amyloid Precursor Protein, sandwich ELISA
Details: read-out: HEK cell assay

Please look up its IC50: "CC(C)(C)OC(=O)/C=C/c1ccc2c(c1)[C@]1(COC(N)=N1)c1cc(-c3cncnc3)ccc1O2"
1 to 5 µM

Fill in: IC50 of "N#Cc1cccc(-c2ccc3c(c2)[C@]2(COC(N)=N2)c2cc(-c4cccnc4)ccc2O3)c1" is ___
< 0.1 µM

// IC50 lookup, key: "NC1=N[C@]2(CO1)c1cc(CC(=O)O)ccc1Oc1ccc(-c3cncnc3)cc12"
> 5 µM

Requested read-out: IC50. Entry: "NC1=N[C@@]2(CO1)c1cc(Br)ccc1Oc1ccc(C#CC3(O)CCC3)cc12"
> 5 µM

* * *

Molecular target: BACE1 (Homo sapiens)
Assay: In Vitro Enzymatic BACE FRET (Fluorescence Resonance Energy Transfer) Assay
Format: biochemical
Details: read-out: BACE1 FRET assay
Procedure: In Vitro Enzymatic BACE FRET (Fluorescence Resonance Energy Transfer) Assay (Enzyme Assay Data in the Example Tables I, II, III & IV) The assay buffer used in this screen is 0.05 M acetate, pH 4.2, 10% DMSO final, 100 uM genapol (which is a nonionic detergent, below its Critical Micelle Concentration). […] The FRET assay is terminated with by addition of Tris buffer, which raises the pH to neutrality, and the fluorescence is determined. […]
readout_label: IC50

Which measured IC50 value corresponds to "CC(C)(C)/C=C/c1cc2c(cn1)Oc1ccc(-c3cccnc3F)cc1[C@@]21COC(N)=N1" ?
< 100 nM

// query IC50 value for entry "CC(C)(C)COc1ccc2c(c1)[C@@]1(COC(N)=N1)c1cc(-c3ccc(OCC(F)(F)F)nc3)cnc1O2"
< 100 nM

Requested field: IC50. Item: "NC1=N[C@@]2(CO1)c1cc(-c3cccnc3)ccc1Oc1cnc(Cl)cc12"
100 to 1000 nM

Request the reported IC50 associated with "NC1=N[C@@]2(CO1)c1cc(-c3cncnc3)ccc1Oc1cccnc12"
> 5000 nM

Sample "NC1=N[C@]2(CO1)c1cc(Br)ccc1Oc1ccc(-c3cccnc3)cc12" — what was its IC50?
100 to 1000 nM

# input compound: "N#Cc1ccc(-c2cnc3c(c2)[C@]2(COC(N)=N2)c2cc(-c4cncnc4)ccc2O3)cc1" ; wanted: its IC50
< 100 nM

Fill in: IC50 of "C[C@@H]1CN(c2cc(F)c3c(c2)[C@]2(COC(N)=N2)c2cc(-c4cccnc4)ccc2O3)C[C@H](C)O1" is ___
< 100 nM

Bench note: what IC50 did "NC1=N[C@@]2(CO1)c1cc(-c3cc(F)ccc3F)ccc1Oc1ncc(N3CCOCC3)cc12" show?
< 100 nM

// IC50 lookup, key: "CC1(COc2ccc3c(c2)[C@]2(COC(N)=N2)c2cc(-c4ccccc4F)cnc2O3)COC1"
< 100 nM

Look up IC50 for this compound: "CC(C)(C)COc1ccc2c(c1)[C@@]1(COC(N)=N1)c1cc(-c3ccnc(F)c3)cnc1O2"
< 100 nM

May I ask what IC50 has been recorded for "COC(=O)/C=C/c1ccc2c(c1)[C@]1(COC(N)=N1)c1cc(-c3cncnc3)ccc1O2" ?
< 100 nM

Fill in the blank: the reported IC50 of "CC(C)(C#N)COc1cc(F)c2c(c1)[C@]1(COC(N)=N1)c1cc(-c3cccnc3F)ccc1O2" is ____.
< 100 nM

Quick one: IC50 of "NC1=N[C@]2(CO1)c1cc(C3=CCOCC3)ccc1Oc1cnc(-c3ccccc3F)cc12" ?
< 100 nM

# query: IC50 of entry "CC1CCN(c2cc3c(cn2)Oc2ccc(-c4cccnc4)cc2[C@@]32COC(N)=N2)CC1"
< 100 nM

// returns reported IC50 for input "CC1(C)CC(c2cc3c(cn2)Oc2ccc(-c4cccnc4)cc2[C@@]32COC(N)=N2)=CCO1"
< 100 nM

Record request: IC50 value, item "NC1=N[C@@]2(CO1)c1cc(-c3ccccc3F)ccc1Oc1cnc(Cl)cc12"
100 to 1000 nM

Reported IC50, compound "NC1=N[C@@]2(CO1)c1cc(-c3cccnc3)ccc1Oc1cnc(N3CCCCC3)cc12" : ____
< 100 nM

IC50 lookup needed for "NC1=N[C@@]2(CO1)c1cc(-c3cccnc3)ccc1Oc1ccc(N3CCOC4(CC4)C3)cc12" , thanks.
< 100 nM

Which IC50 is reported for this compound? "CC(C)(C)COc1ccc2c(c1C#N)[C@]1(COC(N)=N1)c1cc(-c3cccnc3)ccc1O2"
< 100 nM

Which IC50 is listed for "NC1=N[C@@]2(CO1)c1cc(-c3ccc(F)nc3)ccc1Oc1cnc(-c3ccc(F)nc3)cc12" ?
< 100 nM

Item "CC1(C)CN(c2cc(F)c3c(c2)[C@]2(COC(N)=N2)c2cc(-c4cccnc4)ccc2O3)CCO1" has what recorded IC50?
< 100 nM

meta.source: patent US8426447B2
